// data source = ChEMBL document CHEMBL1127782

We begin with a simple list: items and their reported pKi.
assayedTarget: Neutrophil elastase (Homo sapiens)
Sequence (P08246 whole entry): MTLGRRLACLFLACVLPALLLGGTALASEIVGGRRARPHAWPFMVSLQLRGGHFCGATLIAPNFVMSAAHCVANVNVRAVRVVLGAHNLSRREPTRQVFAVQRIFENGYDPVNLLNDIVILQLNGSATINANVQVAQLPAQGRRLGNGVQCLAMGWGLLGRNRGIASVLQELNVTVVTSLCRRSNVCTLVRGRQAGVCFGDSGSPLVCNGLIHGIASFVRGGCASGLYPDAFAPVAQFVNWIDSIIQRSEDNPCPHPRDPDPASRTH
experimentDescription: The compound was tested in vitro for ability to inhibit human leukocyte elastase activity
pKi: −log10 of the molar value.
readout: pKi

| molecule | assayedTarget | readout | quantitativeReadout |
| --- | --- | --- | --- |
| CC(=O)Oc1cccc(Cc2cc(NC(=O)OCc3ccccc3)c(=O)n(CC(=O)NC(C(=O)C(F)(F)F)C(C)C)c2)c1 (configuration not stated) | Neutrophil elastase (Homo sapiens) | pKi | 7.38 |
| CC(C)C(NC(=O)Cn1cccc(NC(=O)CC(=O)O)c1=O)C(=O)C(F)(F)F (configuration not stated) | Neutrophil elastase (Homo sapiens) | pKi | 5.59 |
| CC(C)C(NC(=O)Cn1cccc(NC(=O)C(=O)O)c1=O)C(=O)C(F)(F)F (configuration not stated) | Neutrophil elastase (Homo sapiens) | pKi | 6.46 |
| CC(C)C(NC(=O)Cn1cccc(NC(=O)OCc2ccccc2)c1=O)C(=O)C(F)(F)F (configuration not stated) | Neutrophil elastase (Homo sapiens) | pKi | 6.55 |
| CC(C)C(NC(=O)Cn1cc(Cc2ccccc2)cc(NC(=O)C(N)=O)c1=O)C(=O)C(F)(F)F (configuration not stated) | Neutrophil elastase (Homo sapiens) | pKi | 7.29 |
| CC(C)C(NC(=O)Cn1cccc(N)c1=O)C(=O)C(F)(F)F (configuration not stated) | Neutrophil elastase (Homo sapiens) | pKi | 5.57 |
| CC(C)C(NC(=O)Cn1cc(Cc2ccc(C(F)(F)F)cc2)cc(NC(=O)OCc2ccccc2)c1=O)C(=O)C(F)(F)F (configuration not stated) | Neutrophil elastase (Homo sapiens) | pKi | 7.33 |
| CC(C)C(NC(=O)Cn1cccc([N+](=O)[O-])c1=O)C(=O)C(F)(F)F (configuration not stated) | Neutrophil elastase (Homo sapiens) | pKi | 4.82 |
| CC(C)C(NC(=O)Cn1cc(Cc2ccc(O)cc2)cc(NC(=O)OCc2ccccc2)c1=O)C(=O)C(F)(F)F (configuration not stated) | Neutrophil elastase (Homo sapiens) | pKi | 7.47 |
| COC(=O)C(=O)Nc1cc(Cc2ccccc2)cn(CC(=O)NC(C(=O)C(F)(F)F)C(C)C)c1=O (configuration not stated) | Neutrophil elastase (Homo sapiens) | pKi | 7.15 |
| COC(=O)C(=O)Nc1cccn(CC(=O)NC(C(=O)C(F)(F)F)C(C)C)c1=O (configuration not stated) | Neutrophil elastase (Homo sapiens) | pKi | 6.30 |
| CC(C)C(NC(=O)Cn1cc(Cc2cccc(F)c2)cc(NC(=O)OCc2ccccc2)c1=O)C(=O)C(F)(F)F (configuration not stated) | Neutrophil elastase (Homo sapiens) | pKi | 7.06 |
| CC(C)C(NC(=O)Cn1cc(Cc2ccccc2)cc(NC(=O)C(=O)O)c1=O)C(=O)C(F)(F)F (configuration not stated) | Neutrophil elastase (Homo sapiens) | pKi | 7.32 |
| CC(C)C(NC(=O)Cn1cc(Cc2ccc(F)cc2)cc(NC(=O)OCc2ccccc2)c1=O)C(=O)C(F)(F)F (configuration not stated) | Neutrophil elastase (Homo sapiens) | pKi | 7.15 |
| CC(C)C(NC(=O)Cn1cc(Cc2ccccc2)cc(NC(=O)OCc2ccccc2)c1=O)C(=O)C(F)(F)F (configuration not stated) | Neutrophil elastase (Homo sapiens) | pKi | 7.40 |
| CC(C)C(NC(=O)Cn1cc(Cc2cccc(NC(=O)C(F)(F)F)c2)cc(NC(=O)OCc2ccccc2)c1=O)C(=O)C(F)(F)F (configuration not stated) | Neutrophil elastase (Homo sapiens) | pKi | 7.44 |
| CC(C)C(NC(=O)Cn1cccc(NC(=O)C(N)=O)c1=O)C(=O)C(F)(F)F (configuration not stated) | Neutrophil elastase (Homo sapiens) | pKi | 6.49 |
| CC(C)C(NC(=O)Cn1cc(Cc2cccc(O)c2)cc(NC(=O)OCc2ccccc2)c1=O)C(=O)C(F)(F)F (configuration not stated) | Neutrophil elastase (Homo sapiens) | pKi | 7.05 |
| COC(=O)c1ccc(Cc2cc(NC(=O)OCc3ccccc3)c(=O)n(CC(=O)NC(C(=O)C(F)(F)F)C(C)C)c2)cc1 (configuration not stated) | Neutrophil elastase (Homo sapiens) | pKi | 7.06 |
| CC(C)C(NC(=O)Cn1cc(Cc2cccc(OC(=O)C(C)(C)C)c2)cc(NC(=O)OCc2ccccc2)c1=O)C(=O)C(F)(F)F (configuration not stated) | Neutrophil elastase (Homo sapiens) | pKi | 7.92 |
| CC(C)C(NC(=O)Cn1cc(Cc2ccc(OC(=O)C(C)(C)C)cc2)cc(NC(=O)OCc2ccccc2)c1=O)C(=O)C(F)(F)F (configuration not stated) | Neutrophil elastase (Homo sapiens) | pKi | 7.49 |
| CCOC(=O)CC(=O)Nc1cccn(CC(=O)NC(C(=O)C(F)(F)F)C(C)C)c1=O (configuration not stated) | Neutrophil elastase (Homo sapiens) | pKi | 5.47 |
